Cited source: patent US20120316105A1

system: EC-1, mouse virulent strain of Escherichia coli; type: cell-based; details: E. coli EC-1; overnight incubation, lower of duplicate values; trifluoroacetate salt (Example 1 and PMB sulfate)
Bridge positions count the residues as written; N and C are the ends. Square brackets hold non-standard residues; d marks the D form. Peptide text beside a SMILES is read from it. * marks the point of attachment. Isonicotinoyl(2-Ph) = O=C(c1ccnc(-c2ccccc2)c1)*; X20 = Cc1ccc(-c2cccc(C(=O)*)c2)cc1; X3 = O=C(c1ccnc(-c2cccc(Cl)c2)c1)*; X23 = O=C(c1cnnc(-c2ccccc2)c1)*; Dab = NCC[C@H](N)C(=O)O; Dap = NC[C@H](N)C(=O)O
measurement-kind: EC-1 MIC

Example cases with answers are listed next.
{"columns": ["compound", "EC-1 MIC"],
 "data": [
  ["CC(C)C[C@@H]1NC(=O)[C@@H](Cc2ccccc2)NC(=O)[C@H](CCN)NC(=O)[C@@H](NC(=O)[C@H](CN)NC(=O)[C@@H](NC(=O)[C@H](CCN)NC(=O)c2ccnc(-c3cccc(Cl)c3)c2)[C@@H](C)O)CCNC(=O)[C@H]([C@@H](C)O)NC(=O)[C@H](CCN)NC(=O)[C@H](CCN)NC1=O [Example 3] (X3-[Dab]T[Dap][Dab][Dab][dF]L[Dab][Dab]T; lactam 4-C)", "0.125 µg/mL"],
  ["CC(C)C[C@@H]1NC(=O)[C@@H](Cc2ccccc2)NC(=O)[C@H](CCN)NC(=O)[C@@H](NC(=O)[C@H](CN)NC(=O)[C@@H](NC(=O)[C@H](CCN)NC(=O)c2cnnc(-c3ccccc3)c2)[C@@H](C)O)CCNC(=O)[C@H]([C@@H](C)O)NC(=O)[C@H](CCN)NC(=O)[C@H](CCN)NC1=O [Example 11] (X23-[Dab]T[Dap][Dab][Dab][dF]L[Dab][Dab]T; lactam 4-C)", "0.125 µg/mL"],
  ["Cc1ccc(-c2cccc(C(=O)N[C@@H](CCN)C(=O)N[C@H](C(=O)N[C@@H](CN)C(=O)N[C@H]3CCNC(=O)[C@H]([C@@H](C)O)NC(=O)[C@H](CCN)NC(=O)[C@H](CCN)NC(=O)[C@H](CC(C)C)NC(=O)[C@@H](Cc4ccccc4)NC(=O)[C@H](CCN)NC3=O)[C@@H](C)O)c2)cc1 [Example 37] (X20-[Dab]T[Dap][Dab][Dab][dF]L[Dab][Dab]T; lactam 4-C)", "0.5 µg/mL"]
]}

Item: CC[C@H](C)[C@@H]1NC(=O)[C@@H](Cc2ccccc2)NC(=O)[C@H](CCN)NC(=O)[C@@H](NC(=O)[C@H](CN)NC(=O)[C@@H](NC(=O)[C@H](CCN)NC(=O)c2ccnc(-c3ccccc3)c2)[C@@H](C)O)CCNC(=O)[C@H]([C@@H](C)O)NC(=O)[C@H](CCN)NC(=O)[C@H](CCN)NC1=O [Example 49] ({Isonicotinoyl(2-Ph)}-[Dab]T[Dap][Dab][Dab][dF]I[Dab][Dab]T; lactam 4-C) | EC-1 MIC: 0.125 µg/mL

###

Form field: AB-3167 MIC (one value per entry).
tested on: AB-3167, clinical isolate of Acinetobacter baumannii; type: cell-based; conditions: AB-3167, clinical isolate of
Bridge positions count the residues as written; N and C are the ends. Square brackets hold non-standard residues; d marks the D form. Peptide text beside a SMILES is read from it. * marks the point of attachment. X30 = O=C(c1ccc(Cl)c(-c2ccccc2)c1)*; X20 = Cc1ccc(-c2cccc(C(=O)*)c2)cc1; X23 = O=C(c1cnnc(-c2ccccc2)c1)*; Dab = NCC[C@H](N)C(=O)O; Dap = NC[C@H](N)C(=O)O
Number plus unit, in that order.

Example cases with answers are listed next.
{"columns": ["compound", "AB-3167 MIC"],
 "data": [
  ["CC(C)C[C@@H]1NC(=O)[C@@H](Cc2ccccc2)NC(=O)[C@H](CCN)NC(=O)[C@@H](NC(=O)[C@H](CN)NC(=O)[C@@H](NC(=O)[C@H](CCN)NC(=O)c2ccc(Cl)c(-c3ccccc3)c2)[C@@H](C)O)CCNC(=O)[C@H]([C@@H](C)O)NC(=O)[C@H](CCN)NC(=O)[C@H](CCN)NC1=O [Example 10] (X30-[Dab]T[Dap][Dab][Dab][dF]L[Dab][Dab]T; lactam 4-C)", "0.5 µg/mL"],
  ["Cc1ccc(-c2cccc(C(=O)N[C@@H](CCN)C(=O)N[C@H](C(=O)N[C@@H](CN)C(=O)N[C@H]3CCNC(=O)[C@H]([C@@H](C)O)NC(=O)[C@H](CCN)NC(=O)[C@H](CCN)NC(=O)[C@H](CC(C)C)NC(=O)[C@@H](Cc4ccccc4)NC(=O)[C@H](CCN)NC3=O)[C@@H](C)O)c2)cc1 [Example 37] (X20-[Dab]T[Dap][Dab][Dab][dF]L[Dab][Dab]T; lactam 4-C)", "1 µg/mL"]
]}

Item: CC(C)C[C@@H]1NC(=O)[C@@H](Cc2ccccc2)NC(=O)[C@H](CCN)NC(=O)[C@@H](NC(=O)[C@H](CN)NC(=O)[C@@H](NC(=O)[C@H](CCN)NC(=O)c2cnnc(-c3ccccc3)c2)[C@@H](C)O)CCNC(=O)[C@H]([C@@H](C)O)NC(=O)[C@H](CCN)NC(=O)[C@H](CCN)NC1=O [Example 11] (X23-[Dab]T[Dap][Dab][Dab][dF]L[Dab][Dab]T; lactam 4-C) | AB-3167 MIC: 0.25 µg/mL

###

assay: Cytotoxicity assay (LDH release), hRPTEC; format: cell-based, human; conditions: human
Bridge positions count the residues as written; N and C are the ends. Square brackets hold non-standard residues; d marks the D form. Peptide text beside a SMILES is read from it. * marks the point of attachment. Benzoyl(3-Ph) = O=C(c1cccc(-c2ccccc2)c1)*; X4 = N#Cc1cccc(-c2cc(C(=O)*)ccc2C#N)c1; X29 = COc1cc(C(=O)*)cc(-c2ccccc2)c1; X15 = O=C(c1cccc(-c2cccc(F)c2)c1)*; 2Naphthoyl = O=C(c1ccc2ccccc2c1)*; X31 = O=C(c1ccnc(-c2ccccc2Cl)c1)*; X16 = O=C(c1ccc(-c2ccccc2)nc1)*; X28 = O=C(c1ccc(Oc2ccccc2)nc1)*; X14 = CC(C)c1cccc(C(=O)*)c1; Dab = NCC[C@H](N)C(=O)O; Dap = NC[C@H](N)C(=O)O
measurement-kind: CC50 at 24 h (µM)
A number alone suffices; assume µM.

{"columns": ["compound", "measured-result"],
 "data": [
  ["CC(C)C[C@@H]1NC(=O)[C@@H](Cc2ccccc2)NC(=O)[C@H](CCN)NC(=O)[C@@H](NC(=O)[C@H](CN)NC(=O)[C@@H](NC(=O)[C@H](CCN)NC(=O)c2cccc(C(C)C)c2)[C@@H](C)O)CCNC(=O)[C@H]([C@@H](C)O)NC(=O)[C@H](CCN)NC(=O)[C@H](CCN)NC1=O [Example 25] (X14-[Dab]T[Dap][Dab][Dab][dF]L[Dab][Dab]T; lactam 4-C)", 88],
  ["CC(C)C[C@@H]1NC(=O)[C@@H](Cc2ccccc2)NC(=O)[C@H](CCN)NC(=O)[C@@H](NC(=O)[C@H](CN)NC(=O)[C@@H](NC(=O)[C@H](CCN)NC(=O)c2ccc(C#N)c(-c3cccc(C#N)c3)c2)[C@@H](C)O)CCNC(=O)[C@H]([C@@H](C)O)NC(=O)[C@H](CCN)NC(=O)[C@H](CCN)NC1=O [Example 14] (X4-[Dab]T[Dap][Dab][Dab][dF]L[Dab][Dab]T; lactam 4-C)", 43],
  ["CC(C)C[C@@H]1NC(=O)[C@@H](Cc2ccccc2)NC(=O)[C@H](CCN)NC(=O)[C@@H](NC(=O)[C@H](CN)NC(=O)[C@@H](NC(=O)[C@H](CCN)NC(=O)c2ccc(-c3ccccc3)nc2)[C@@H](C)O)CCNC(=O)[C@H]([C@@H](C)O)NC(=O)[C@H](CCN)NC(=O)[C@H](CCN)NC1=O [Example 27] (X16-[Dab]T[Dap][Dab][Dab][dF]L[Dab][Dab]T; lactam 4-C)", 73]
]}

Item: CC(C)C[C@@H]1NC(=O)[C@@H](Cc2ccccc2)NC(=O)[C@H](CCN)NC(=O)[C@@H](NC(=O)[C@H](CN)NC(=O)[C@@H](NC(=O)[C@H](CCN)NC(=O)c2ccc3ccccc3c2)[C@@H](C)O)CCNC(=O)[C@H]([C@@H](C)O)NC(=O)[C@H](CCN)NC(=O)[C@H](CCN)NC1=O [Example 6] (2Naphthoyl-[Dab]T[Dap][Dab][Dab][dF]L[Dab][Dab]T; lactam 4-C) | CC50 at 24 h: 51

Item: CC(C)C[C@@H]1NC(=O)[C@@H](Cc2ccccc2)NC(=O)[C@H](CCN)NC(=O)[C@@H](NC(=O)[C@H](CN)NC(=O)[C@@H](NC(=O)[C@H](CCN)NC(=O)c2ccnc(-c3ccccc3Cl)c2)[C@@H](C)O)CCNC(=O)[C@H]([C@@H](C)O)NC(=O)[C@H](CCN)NC(=O)[C@H](CCN)NC1=O [Example 4] (X31-[Dab]T[Dap][Dab][Dab][dF]L[Dab][Dab]T; lactam 4-C) | CC50 at 24 h: 86

Item: CC(C)C[C@@H]1NC(=O)[C@@H](Cc2ccccc2)NC(=O)[C@H](CCN)NC(=O)[C@@H](NC(=O)[C@H](CN)NC(=O)[C@@H](NC(=O)[C@H](CCN)NC(=O)c2cccc(-c3ccccc3)c2)[C@@H](C)O)CCNC(=O)[C@H]([C@@H](C)O)NC(=O)[C@H](CCN)NC(=O)[C@H](CCN)NC1=O [Example 19] ({Benzoyl(3-Ph)}-[Dab]T[Dap][Dab][Dab][dF]L[Dab][Dab]T; lactam 4-C) | CC50 at 24 h: 21

Item: CC(C)C[C@@H]1NC(=O)[C@@H](Cc2ccccc2)NC(=O)[C@H](CCN)NC(=O)[C@@H](NC(=O)[C@H](CN)NC(=O)[C@@H](NC(=O)[C@H](CCN)NC(=O)c2ccc(Oc3ccccc3)nc2)[C@@H](C)O)CCNC(=O)[C@H]([C@@H](C)O)NC(=O)[C@H](CCN)NC(=O)[C@H](CCN)NC1=O [Example 12] (X28-[Dab]T[Dap][Dab][Dab][dF]L[Dab][Dab]T; lactam 4-C) | CC50 at 24 h: 61

Item: CC(C)C[C@@H]1NC(=O)[C@@H](Cc2ccccc2)NC(=O)[C@H](CCN)NC(=O)[C@@H](NC(=O)[C@H](CN)NC(=O)[C@@H](NC(=O)[C@H](CCN)NC(=O)c2cccc(-c3cccc(F)c3)c2)[C@@H](C)O)CCNC(=O)[C@H]([C@@H](C)O)NC(=O)[C@H](CCN)NC(=O)[C@H](CCN)NC1=O [Example 18] (X15-[Dab]T[Dap][Dab][Dab][dF]L[Dab][Dab]T; lactam 4-C) | CC50 at 24 h: 22

Item: COc1cc(C(=O)N[C@@H](CCN)C(=O)N[C@H](C(=O)N[C@@H](CN)C(=O)N[C@H]2CCNC(=O)[C@H]([C@@H](C)O)NC(=O)[C@H](CCN)NC(=O)[C@H](CCN)NC(=O)[C@H](CC(C)C)NC(=O)[C@@H](Cc3ccccc3)NC(=O)[C@H](CCN)NC2=O)[C@@H](C)O)cc(-c2ccccc2)c1 [Example 17] (X29-[Dab]T[Dap][Dab][Dab][dF]L[Dab][Dab]T; lactam 4-C) | CC50 at 24 h: 26
